- TARGET OR SYSTEM: T1, TGFβ3 (R&D Systems)
- T1 sequence (P10600 301-412, species assumed, looked up): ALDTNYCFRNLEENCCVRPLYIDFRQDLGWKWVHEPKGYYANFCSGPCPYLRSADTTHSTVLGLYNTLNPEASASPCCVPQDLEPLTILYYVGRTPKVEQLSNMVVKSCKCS
- EXPERIMENT: cell-based or functional assay
# Lookup of reported TGFb3 IC50 (SMAD3 phosphorylation in CMVICs, AlphaLISA) keyed by entry
MEASURED PARAMETER: TGFb3 IC50 (SMAD3 phosphorylation in CMVICs, AlphaLISA) (µg/mL)

# BINDER, RECORDED MEASUREMENT
measured = [
    ("Felinized anti-TGFβ1,2,3 antibody VH3.2 - VL1 (antibody, V domains shown) VH: DVQLVESGGDLVKPGGSLRLTCVASGYTFSSNVMHWVRQAPGKGLQWVAYVIPIVDIAYYADSVKGRFTISIDNSKNTLYLQMNSLKTEDTATYYCARTLGLVLDAMDYWGQGTLVTVSS VL: ETVLTQSPGTLSLSPGERATLSCRASQSLGSSYLAWYQQKPGQAPRLLIYGASSRAPGIPDRFSGSGSGTDFTLTISRLEPEDFAVYYCQQYADSPITFGQGTKLEIKR", 0.053),
    ("Caninized anti-TGFβ1,2,3 antibody VH3.1 - VL2 (ZTS-122) (antibody, V domains shown) VH: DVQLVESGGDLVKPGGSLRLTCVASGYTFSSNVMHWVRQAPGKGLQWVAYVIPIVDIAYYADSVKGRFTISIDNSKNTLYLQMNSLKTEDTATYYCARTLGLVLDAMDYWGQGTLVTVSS VL: ETVLTQSPGTLSLSPGERATLSCRASQSLGSSYLAWYQQKPGQAPRLLIYGASSRAPGVPARFSGSGSGTDFTLTISSLEPEDFAVYYCQQYADSPITFGQGTKLEIKR", 0.092),
    ("human: feline GC1008 chimera felchimGC1008 (antibody, V domains shown) VH: QVQLVQSGAEVKKPGSSVKVSCTASGYTPSSNVISNVRQAPGQGLENNGGVIPIVDIANYAQRPKGRVTITADESTSTTYHELSSLRSEDTAVYYCASTLGLVLDAMDYHGQGTLVTVSS VL: ETVLTQSPGTLSLSPGERATLSCRASQSLGSSYLAWYQQKPGQAPRLLIYGASSRAPGIPDRFSGSGSGTDFTLTISRLEPEDFAVYYCQQYADSPITFGQGTRLEIKR", 0.053),
]

All values here come from patent US20230192834A1.
